test system: MS2 coat protein; test: apparent KD of MS2 coat protein; designed switch direction (-1 OFF switch, 1 ON switch): -1; higher = weaker reporter binding; conditions: Eterna round: R95; input ligand: FMN 200 uM
Values of apparent KD of MS2 coat protein greater than or equal to 200 nM map to T; values below map to F.

ACAAGCGAAAGGCUCGUCUUAUUUUUGUAGAGGUUCUAAACAUGAGGAUCACCCAUGUAGUGGCGAUGGUGGAGGUA [JR_SV3TOV2_Sub069] (puzzle: Sensor v3, turn-off variant 2)    F
AGGUGACAUGAGGAUCACCCAUGUAAGGAUAUACGGUUAGUGGAGAGAGGGAAGAGAGGUAGAAGGUACGGAGC [JR_Exclu1_Sub058] (puzzle: Exclusion 1)    T
UUAGUGUGAGGAUAUGGUAAAGAUAAGAUGAUGAAAGAACUCCAGAAGGCACAUGAGGAUCACCCAUGUAGAUG [JL-ex4-2.13 Jieux mod] (puzzle: Exclusion 4)    F
GAAUAGGCAGGAUAUACAUGAGGAUCACCCAUGUGCAACCGAAAGGAACGUCCGAAAGGUAGAAGGGCCUAAAC [ChP 13.04.2015 #9] (puzzle: Exclusion 3)    F
UUAUUUAGUGUGAGGAUAUGCUGGUCGAUAGAUCAGCAGAAGGCACAUGAGGAUCACCCAUGUAAUAUAUUAAU [Mat - Exclusion 4 - JL Mod - D33] (puzzle: Brourd's mod of Exclusion 4)    T

// inclusive: apparent KD of MS2 coat protein at least 200 nM? input: UUUAAUUUUUUUUUUUUACAAGCUUUUUGCUCGUCUUAUACAUGAGGAUCACCCAUGUAAAUGGAGGGUAAAUUAUC [JMF 83] (puzzle: Sensor v3, turn-off variant 2)
F

// inclusive: apparent KD of MS2 coat protein at least 200 nM? input: UGUAGGUCUACCUUGGUGGAUCUGCAUUUUUGCAGGUGUACAUGAGGAUCACCCAUGUCCUCAUUUGCUCGUCUUAU [JL turnoff v2 99.31] (puzzle: Sensor v3, turn-off variant 2)
T

// inclusive: apparent KD of MS2 coat protein at least 200 nM? input: GGUACUAACACGAAAGUGUUAGUACUGUAGGUUUGUGUUACAUGAGGAUCACCCAUGUCCUCAUAAGCUCGUCUUGU [JL-sv3-2.22 mat747 mod] (puzzle: Sensor v3, turn-off variant 2)
T

// inclusive: apparent KD of MS2 coat protein at least 200 nM? input: AGUAACUAUCACGAAAGUGAUAGUUACAAUAGCAGUGAAACAUGAGGAUCACCCAUGUCCUCAUUUGCUCGUCUUAU [Sensor 3 - 23] (puzzle: Sensor v3, turn-off variant 2)
F

* * *

test system: K4 kissing-loop RNA reporter; assay: apparent KD of K4 kissing-loop reporter; higher = weaker reporter binding; conditions: Eterna round: R107; input ligand: FMN 200 uM;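 further: bound reporter read as fluorescence of individual clusters on recovered sequencing chips by microscopy, with normalized cluster intensities fitted with a binding model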
Values of apparent KD of K4 kissing-loop reporter greater than or equal to 0.2 µM map to yes; values below map to no.

AAUGCAUAGUGAAGGAGCGCGAUAAGCAGUGAUGUUGCUUAGCUAUUAUUCAUUUUUUUAACGCAGGUAGGUCGCACUUUGCAUA [JR_ExcArginiB_Sub016]    no
CCUAUCUCAUACGAUACCAGUCCGAGUGAUGUUCGAACAUAAAUUAGUUUGCCAUAUAAUGACCCUUGGCAGCGUAUGGGAUAGG [Ex Theophylline B K4 12]    yes
AAGUGAUGUUGUAGUGAUGUUGUGAUGUUGCAGGAUAUAUAGUGAUGUAGAAGGGUAAGUACUGUUUUUUUUUUUGAGUGAUGUU [ookooyzrmullin]    no
GGGAGUAGUGCGGCCGCCACUGUGAGGGAAGAAGAAUAUAGUGAUGUUAUAUAGGAAGGGAAGAAUAGGACCGGGCAUUAGAUUU [SSTRyptB.aB]    yes

// inclusive: apparent KD of K4 kissing-loop reporter at least 0.2 µM? input: CACAGAUCCUAAGGAUAUGGAGUGAUGUUCGCAAGUUCUUGGUGUGCAUUCAUCUGUCCUAUCAACCCAGAAGGUAGGAAGUCAC [theeternabot_exclusion_KL_FMN_B_1]
yes

// inclusive: apparent KD of K4 kissing-loop reporter at least 0.2 µM? input: CUCUAGGCGCUCGCGUGAGUGAUGUUUACGCGAGGACCGGUACGGCCGCCACUCGCAGACUGGGUGUAAGCGGAGCUGUAUGCCC [theeternabot_exclusion_KL_Trp_A_12]
yes

// inclusive: apparent KD of K4 kissing-loop reporter at least 0.2 µM? input: AGAUUCGACACGGCCGCCACUUCCAGUGGUCGGUGUCAUGGUGCACAUGAGUGAUGUUCAUGUGGAAGGACCGGGUGUUGAGUCU [KL-XTryp-B3 #analogue]
no

// inclusive: apparent KD of K4 kissing-loop reporter at least 0.2 µM? input: GGAUAGGACAUAGGAUAUGGUAGUGAUGUUACCAAACUGGUUAAACAUGUCAGAAAACUGGCAUGACCAGAAGGAUGUCCUAUCG [FmnBX 27 U11+A75]
no

// inclusive: apparent KD of K4 kissing-loop reporter at least 0.2 µM? input: AAAUAUUCGAGUGAUGUUCGAUAAAUUUCAGAGGAUAUGCUUAAAAGCAGAAGGCUGUAUUUCUAUUUGUUAUUAAAUUUUAUAA [JR_ExcFMNA_Sub002]
no

// inclusive: apparent KD of K4 kissing-loop reporter at least 0.2 µM? input: CGCGAGUCCUUUCAGUGAGUGAUGUUUACGCGAGGACCGGUACGGCCGCCACUCGAUGGUAUACCAAGACAUCAGCAGAUUGUCU [theeternabot_exclusion_KL_Trp_A_18]
yes

// inclusive: apparent KD of K4 kissing-loop reporter at least 0.2 µM? input: UGACUGGACUGAAGGAGCGCGAACUCCUAGUGAUGUUAGGAAAUACGAGACAAAGUCUCGACGCAGGUAGGUCGCAGUCUAGUCU [ArgBS 15 #SwitchBubble #StaticStem]
no
